# TARGET OR SYSTEM: CDK2 cyA (Homo sapiens, UniProt P24941)
# TEST: CDK2 cyA IMAP
# Assay type: biochemical
# APPLIED CONDITIONS: Table 2; read-out: CDK2cyA IMAP/ IC50
pIC50: −log10 of the molar value.
QUANTITY KIND: pIC50

// solved cases for pIC50 follow
| COMPOUND | pIC50 |
| --- | --- |
| CC(C)c1n[nH]cc1-c1ccnc(N[C@H]2CCc3ccccc32)n1 | > 5.30 |
| Cc1n[nH]cc1-c1ccnc(NCc2ccc3c(c2)OCO3)n1 | > 5.00 |

Would you kindly look at the next entry?
# get_value(readout= pIC50, system= CDK2 cyA (Homo sapiens, UniProt P24941)) for "Cc1n[nH]cc1-c1ccnc(NC2CCCC2)n1"
> 5.30
